Values were extracted from patent US20240197596A1.

Test: Thermodynamic solubility assay (modified shake flask, LC-MS/MS)
Conditions: Milli-Q water, 25 °C, pH 7, water, thermodynamic from solid, Water Solubility, library of old series (Table 4)
Recorded measurements of log10 of solubility at 24 h, one per entry
Please interpret these as log10 of solubility at 24 h where solubility at 24 h is in µg/mL.

{"COMPOUND": "COCc1cc(N)ccc1N", "log10 of solubility at 24 h": 4.89}
{"COMPOUND": "CCCCCCOc1cc(N)ccc1N [PPD 4, reference compound]", "log10 of solubility at 24 h": 1.90}
{"COMPOUND": "CCCCCCNc1ccc(Nc2ccc(N)cc2)cc1OCCCCCC [PPD7, reference compound]", "log10 of solubility at 24 h": 0.70}

CCCCC(CC)COc1cc(N)ccc1N (centres unmarked) [PPD 3, reference compound] yielded log10 of solubility at 24 h of 1.90

Record Nc1ccc(Nc2ccc(N)cc2)cc1 [PPD 1, reference compound] . Reported log10 of solubility at 24 h: 2.70

Lab book: log10 of solubility at 24 h of CCCCCCOC(=O)c1cc(Nc2ccc(N)cc2)ccc1N [PPD 6, reference compound] noted as 0.00

compound Nc1ccc(Nc2ccc(Nc3ccc(N)cc3)cc2)cc1 [PPD 2, reference compound] , log10 of solubility at 24 h observed: 2.00

The recorded log10 of solubility at 24 h for entry CCCCCCOC(=O)c1cc(N)ccc1N [PPD15, reference compound] equals 1.00
